B1: MED27 (parent)
chain: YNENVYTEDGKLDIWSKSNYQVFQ

Variants of: B1
Experiment: protein stability index of a GFP-peptide fusion (GPS, HEK-293T) (PSI 1-6); higher = more stable;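 further: lentivirally expressed fusions sorted by FACS into six bins by GFP to DsRed ratio, PSI derived from sequencing read proportions per bin multiplied by bin number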
Conditions: c terminus: a fixed tail appended
// reported protein stability index for each item listed
Could you respond with only the numeric value?

Answered examples (5):
YNENVGTEDGKLDIWSKSNYQVFQ [Y6G] ... 2.57
YRENVYTEDGKLDIWSKSNYQVFQ [N2R] ... 2.4
YNELVYTEDGKLDIWSKSNYQVFQ [N4L] ... 1.99
YSENVYTEDGKLDIWSKSNYQVFQ [N2S] ... 2.02
YNENVYTEDGKLDIWSKSNYQVMQ [F23M] ... 2.28

Task: Sample YNEWVYTEDGKLDIWSKSNYQVFQ [N4W] — what was its protein stability index?
Output: 1.15

The reported numbers originate from the supplement of paper PMC10567573.
